System: Colon 26 tumor cells
Assay: Colon 26 percent tumor inhibition, alone and combined with 5-FU derivatives (Test Example 3)
Type: in vivo, BALB/c mice
Settings: Test (3): 21 days; test compound 10 mg/kg orally once daily concurrently with 5-FU derivatives (90 mg/kg total)
Provide the recorded % Inhibition, Combination for the entries that follow.
Remember to follow the number with its unit.

Assay Colon 26 tumor cells, sample COCCOc1ccc(Cl)cc1-c1nc(N)nc(N)n1 , % Inhibition, Combination read: 76.5%

Observed % Inhibition, Combination on Colon 26 tumor cells, entry Nc1nc(N)nc(-c2cc(Cl)ccc2Cl)n1 , equals 49.9%

For Nc1nc(NC(=O)c2cccnc2)nc(-c2cc(Cl)ccc2Cl)n1 on Colon 26 tumor cells, measured % Inhibition, Combination was 48.8%

Observed % Inhibition, Combination, Colon 26 tumor cells, Nc1nc(NC(=O)c2cccnc2)nc(-c2ccc(Cl)c(Cl)c2)n1 : 52.0%

----------
Would you mind telling me the reported inhibition at 1 µM of each entry?
Test system: MDCK cells
Assay: Inhibition of uptake of 5-FU in MDCK cells (Test Example 4)
Type: cell-based
Conditions: Canis lupus familiaris, 10⁻⁶ M, 3H-5FU uptake versus control, harvest time (1, 3 or 5 hours) not given
Lab book: enter the figure in %, no units written.

The value of inhibition at 1 µM measured for the compound O=C(Nc1nc(NC(=O)c2cccnc2)nc(-c2ccccc2)n1)c1cccnc1 turned out to be 86

Note to self: inhibition at 1 µM recorded for Nc1nc(N)nc(-c2ccc(Br)c(Cl)c2)n1 was 86

GET /value?item= COc1ccc(-c2nc(N)nc(NC(=O)c3cccnc3)n2)cc1OC &field=inhibition at 1 µM returns 89

The compound listed as Nc1nc(N)nc(-c2ccc(OCc3ccccc3)cc2)n1 has a reported inhibition at 1 µM of 63

Looking up Nc1nc(N)nc(-c2ccc(Cl)c(Cl)c2)n1 , I see its inhibition at 1 µM listed as 85

Quick note, inhibition at 1 µM for COc1ccc(-c2nc(N)nc(N)n2)cc1OC landed at 77

Recorded result, O=C(Nc1nc(NC(=O)c2ccccc2)nc(-c2ccccc2)n1)c1ccccc1 , inhibition at 1 µM: 60

inhibition at 1 µM for Nc1nc(N)nc(-c2ccccc2NCc2ccccc2)n1 is 91

Source of measurements: patent EP0563386A1
